- Tgt: RecG (WT) (Escherichia coli, UniProt P24230)
- Construct: RecG was expressed in STL2669/pT7pol26 (a gift from Dr Susan Lovett, Brandeis University) with overexpression plasmid pEAW111; made in house; host or cells: E. coli STL2669/pT7pol26
- Sequence (P24230 whole entry): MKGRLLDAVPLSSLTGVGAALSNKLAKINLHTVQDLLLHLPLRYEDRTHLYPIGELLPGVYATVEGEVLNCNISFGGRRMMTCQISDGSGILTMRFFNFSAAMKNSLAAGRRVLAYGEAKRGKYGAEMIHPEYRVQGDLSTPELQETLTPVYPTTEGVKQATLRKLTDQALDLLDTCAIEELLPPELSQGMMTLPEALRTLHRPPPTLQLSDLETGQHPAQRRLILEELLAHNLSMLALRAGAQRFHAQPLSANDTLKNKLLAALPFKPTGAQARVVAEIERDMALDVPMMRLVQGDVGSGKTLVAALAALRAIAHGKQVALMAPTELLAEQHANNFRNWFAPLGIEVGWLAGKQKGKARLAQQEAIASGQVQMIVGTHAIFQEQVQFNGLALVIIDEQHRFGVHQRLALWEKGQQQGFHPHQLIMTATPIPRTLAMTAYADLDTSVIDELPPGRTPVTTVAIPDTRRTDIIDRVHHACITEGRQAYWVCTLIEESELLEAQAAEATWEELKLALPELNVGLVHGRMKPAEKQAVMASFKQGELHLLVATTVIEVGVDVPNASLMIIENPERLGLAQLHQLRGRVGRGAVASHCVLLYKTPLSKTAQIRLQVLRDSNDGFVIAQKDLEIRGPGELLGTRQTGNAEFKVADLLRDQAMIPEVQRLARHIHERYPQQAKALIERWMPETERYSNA
- Experiment summary: Fluorescence anisotropy binding of 6-FAM-labelled SSB peptides to wildtype RecG
- Parameters: species or system E. coli
- Experimental conditions: read-out: FP K D; WT RecG; fluorescence anisotropy; 10 nM N-terminal 6-FAM peptide; 0.2 M potassium glutamate, 25 mM Tris-acetate pH 7.6, 10 mM magnesium acetate; 30 min at room temperature, read at 25°C; one site fit; triplicate
Where no end group is shown, it is not given here.

{"Substance": "H-WMDFDDDIP [SSBΔF peptide]", "Kd": "> 30 µM"}
